What AUC(0-inf) was measured for each of the following?
- assay notes: AUC (0 to infinity) in rat at 1 mg/kg, iv
- Type: ADME, organism-based
- Set-up: route intravenous, time infinity, dose 1 mg/kg
- stated conditions: in vivo
Only the number, expressed in µM·h, is required.

Report AUC(0-inf), nothing else, for this compound: CC(C)N1CC=C(c2ccc(/C(=C(/CCCO)c3ccccc3)c3ccc(O)cc3)cc2)CC1.Cl
0.88

Tell us which AUC(0-inf) value is on record for CC(C)N1CC=C(c2ccc(/C(=C(/CCCO)c3ccccc3)c3cccc(O)c3)cc2)CC1.Cl
0.38

For the compound Cl.OCCC/C(=C(\c1ccc(O)cc1)c1ccc(C2CCN(C3CC3)CC2)cc1)c1ccccc1 , give its reported AUC(0-inf).
0.54
